- particulars: in 1,4-dioxane, 308.15 K
measured_endpoint: solubility (mole fraction)
Answer as a number with no unit attached.

Per the records, this compound ( Clc1ccc(COC(Cn2ccnc2)c2ccc(Cl)cc2Cl)cc1.O=[N+]([O-])O (stereo unspecified) ) has solubility (mole fraction) equal to 0.000596

----------
- particulars: in 1,4-dioxane, 298.15 K
measured_endpoint: solubility (mole fraction)
Please reply with the value in numeric form only.

# solubility (mole fraction) (molecule: Clc1ccc(COC(Cn2ccnc2)c2ccc(Cl)cc2Cl)cc1.O=[N+]([O-])O (stereo unspecified) ) is 0.000393

----------
- particulars: in methanol, 308.15 K
measured_endpoint: solubility (mole fraction)
Note: the reply should be a number with no unit written.

Form: compound = Clc1ccc(COC(Cn2ccnc2)c2ccc(Cl)cc2Cl)cc1.O=[N+]([O-])O (stereo unspecified) ; solubility (mole fraction) = 0.00479

----------
- particulars: in 1,4-dioxane, 318.15 K
measured_endpoint: solubility (mole fraction)
Enter a number only.

Lab note: Clc1ccc(COC(Cn2ccnc2)c2ccc(Cl)cc2Cl)cc1.O=[N+]([O-])O (stereo unspecified) gave solubility (mole fraction) of 0.000897

----------
- particulars: in methanol, 303.15 K
measured_endpoint: solubility (mole fraction)
API note: the answer field is a bare number with no unit suffix.

According to the records, this compound Clc1ccc(COC(Cn2ccnc2)c2ccc(Cl)cc2Cl)cc1.O=[N+]([O-])O (stereo unspecified) displays solubility (mole fraction) of 0.00397

----------
- particulars: in methanol, 278.15 K
measured_endpoint: solubility (mole fraction)

Short answer for Clc1ccc(COC(Cn2ccnc2)c2ccc(Cl)cc2Cl)cc1.O=[N+]([O-])O (stereo unspecified) : solubility (mole fraction) was 0.0015

----------
- particulars: in 1,4-dioxane, 303.15 K
measured_endpoint: solubility (mole fraction)
Give a plain numeric answer without units written out.

Input Clc1ccc(COC(Cn2ccnc2)c2ccc(Cl)cc2Cl)cc1.O=[N+]([O-])O (stereo unspecified) . Output solubility (mole fraction): 0.000482

----------
- particulars: in methanol, 318.15 K
measured_endpoint: solubility (mole fraction)
Just the number.

Entry Clc1ccc(COC(Cn2ccnc2)c2ccc(Cl)cc2Cl)cc1.O=[N+]([O-])O (stereo unspecified) , solubility (mole fraction) reported as 0.00687

----------
- particulars: in methanol, 283.15 K
measured_endpoint: solubility (mole fraction)
Could you respond with only the numeric value?

Please fill in: solubility (mole fraction) reported for Clc1ccc(COC(Cn2ccnc2)c2ccc(Cl)cc2Cl)cc1.O=[N+]([O-])O (stereo unspecified) = 0.00181

----------
- particulars: in ethanol, 318.15 K
measured_endpoint: solubility (mole fraction)
Reply with the value as a number alone.

Documented solubility (mole fraction) of Clc1ccc(COC(Cn2ccnc2)c2ccc(Cl)cc2Cl)cc1.O=[N+]([O-])O (stereo unspecified) : 0.00275

----------
- particulars: in water, 283.15 K
measured_endpoint: solubility (mole fraction)
Simply state the number, no unit and no words.

The recorded solubility (mole fraction) for Clc1ccc(COC(Cn2ccnc2)c2ccc(Cl)cc2Cl)cc1.O=[N+]([O-])O (stereo unspecified) is 2.05e-05

----------
- particulars: in ethanol, 303.15 K
measured_endpoint: solubility (mole fraction)

Clc1ccc(COC(Cn2ccnc2)c2ccc(Cl)cc2Cl)cc1.O=[N+]([O-])O (stereo unspecified) yielded solubility (mole fraction) of 0.00153

Values were extracted from BigSolDB 2.1.
